Answer each item with its documented viability, T/C.
System: 616215-338-R-J1-PDC spheroids with HUVEC/MSC, viability
Protocol Summary: Anticancer human tumor 616215-338-R-J1-PDC patient-derived colon adenocarcinoma cell line growth inhibition [PI3K]
Condition Description: second compound 1 µM; first compound 3 µM; stronger effect = lower value
Source text: Combinatorial screen of targeted agents with the PI3K inhibitors inavolisib, alpelisib, duvelisib, and copanlisib in multi-cell type tumor spheroids A high-throughput screen of multi-cell type tumor spheroids was designed to identify active combinations of targeted small molecules and PI3K pathway inhibitors. […] Compounds. […] If the clinical Cmax for an agent had not been determined, the highest concentration tested was 10 microM. […]
Give bare numbers, in %.

Recorded results for 3 compounds are shown here.
Need viability, T/C, item Cn1cnc2c(F)c(Nc3ccc(Br)cc3Cl)c(C(=O)NOCCO)cc21 + CC(Nc1ncnc2nc[nH]c12)c1cc2cccc(Cl)c2c(=O)n1-c1ccccc1 36.9

Need viability, T/C, item Cn1cnc2c(F)c(Nc3ccc(Br)cc3Cl)c(C(=O)NOCCO)cc21 + Cc1nc(NC(=O)N2CCCC2C(N)=O)sc1-c1ccnc(C(C)(C)C(F)(F)F)c1 36.5

Need viability, T/C, item Cn1cnc2c(F)c(Nc3ccc(Br)cc3Cl)c(C(=O)NOCCO)cc21 + COc1c(OCCCN2CCOCC2)ccc2c3n(c(=NC(=O)c4cnc(N)nc4)nc12)CCN3 0.32

For the next question, use this compound.
Need viability, T/C, item Cn1cnc2c(F)c(Nc3ccc(Br)cc3Cl)c(C(=O)NOCCO)cc21 + CC(Nc1ccc2c(c1)OCCn1cc(N3C(=O)OCC3C(F)F)nc1-2)C(N)=O 26.4

* * *

System: 616215-338-R-J1-PDC spheroids with HUVEC/MSC, viability
Protocol Summary: Anticancer human tumor 616215-338-R-J1-PDC cell line growth inhibition [PI3K]; active means viability on the fitted dose curve at most 10% of control; inactive means the rest;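 note: spheroids exposed to agents for seven days before the viability read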
Condition Description: second compound 1 µM; first compound 0.3 µM
Pick one: active, inactive

Use these answered entries as a reference point.
Called result for Cn1cnc2c(F)c(Nc3ccc(Br)cc3Cl)c(C(=O)NOCCO)cc21 + COc1c(OCCCN2CCOCC2)ccc2c3n(c(=NC(=O)c4cnc(N)nc4)nc12)CCN3 active

Called result for Cn1cnc2c(F)c(Nc3ccc(Br)cc3Cl)c(C(=O)NOCCO)cc21 + CC(Nc1ccc2c(c1)OCCn1cc(N3C(=O)OCC3C(F)F)nc1-2)C(N)=O inactive

Called result for Cn1cnc2c(F)c(Nc3ccc(Br)cc3Cl)c(C(=O)NOCCO)cc21 + CC(Nc1ncnc2nc[nH]c12)c1cc2cccc(Cl)c2c(=O)n1-c1ccccc1 inactive

We now examine a further compound.
Called result for Cn1cnc2c(F)c(Nc3ccc(Br)cc3Cl)c(C(=O)NOCCO)cc21 + Cc1nc(NC(=O)N2CCCC2C(N)=O)sc1-c1ccnc(C(C)(C)C(F)(F)F)c1 inactive

* * *

System: 616215-338-R-J1-PDC spheroids with HUVEC/MSC, viability
Protocol Summary: Anticancer human tumor 616215-338-R-J1-PDC cell line growth inhibition [PI3K];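 note: spheroids exposed to agents for seven days before the viability read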
Condition Description: compound alone; run of 05/09/2023
Assay Endpoint: IC50

Form: Entry = CC(Nc1ncnc2nc[nH]c12)c1cc2cccc(Cl)c2c(=O)n1-c1ccccc1 (configuration not stated) | System = 616215-338-R-J1-PDC spheroids with HUVEC/MSC, viability | IC50 = ____ > 10 µM

For the next question, use this compound.
Form: Entry = COc1c(OCCCN2CCOCC2)ccc2c3n(c(=NC(=O)c4cnc(N)nc4)nc12)CCN3 | System = 616215-338-R-J1-PDC spheroids with HUVEC/MSC, viability | IC50 = ____ 279 nM [middle of 7 runs]
